Data provenance: patent US8362000B2

Exercise: state measured Kd for each of the molecules provided.
Molecular target: mutant MGL (Homo sapiens, UniProt Q99685, L169S/L176S)
Sequence (Q99685 whole entry L169S/L176S): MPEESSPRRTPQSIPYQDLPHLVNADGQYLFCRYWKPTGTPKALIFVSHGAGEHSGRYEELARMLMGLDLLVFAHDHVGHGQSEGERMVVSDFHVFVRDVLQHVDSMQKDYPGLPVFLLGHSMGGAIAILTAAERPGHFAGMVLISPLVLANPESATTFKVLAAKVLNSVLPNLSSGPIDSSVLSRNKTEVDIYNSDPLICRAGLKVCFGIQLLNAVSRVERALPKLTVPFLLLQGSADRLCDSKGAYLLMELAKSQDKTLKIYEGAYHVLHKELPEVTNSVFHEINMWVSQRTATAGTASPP
Experiment: MGL ThermoFluor assay - mutant
Format: binding
Settings: ThermoFluor concentration-response, read-out: MGL mutant ThermoFluor Kd
Respond numerically; units are nM and should not be typed.

Kd in this record for `O=C(c1ccc(-c2ccccc2)cc1)N1CC(N2CCN(C(=O)c3cncs3)CC2)C1` : 111

Kd in this record for `COc1cc(C(=O)N2CC(N3CCN(C(=O)c4ccccc4)CC3)C2)ccc1Br` : 5000

Kd in this record for `O=C(c1ccc2c(c1)[nH]c(=O)n2-c1ccccc1)N1CC(N2CCN(C(=O)c3nccs3)CC2)C1` : 34

Kd in this record for `O=C(c1ccc2[nH]ccc2c1)N1CC(N2CCN(C(=O)c3nccs3)CC2)C1` : 333

Kd in this record for `O=C(c1ccccc1)N1CCN(C2CN(C(=O)c3ccccc3NCc3ccccc3)C2)CC1` : 3330

Kd in this record for `O=C(c1ccc2c(ccn2-c2ccc(F)c(F)c2)c1)N1CC(N2CCN(C(=O)c3ccc[nH]3)CC2)C1` : 12

Kd in this record for `O=C(c1ccccc1)N1CCN(C2CN(C(=O)c3ccc(N4CCCC4)cc3)C2)CC1` : 100

Kd in this record for `O=C(c1ccc2c(-c3ccc(C(F)(F)F)cc3)c[nH]c2c1)N1CC(N2CCN(C(=O)c3nccs3)CC2)C1` : 1

Kd in this record for `O=C(c1ccccc1)N1CCN(C2CN(C(=O)c3ccc(Oc4ccccn4)cc3)C2)CC1` : 20000

Kd in this record for `Cc1nc(-c2ccc(Cl)cc2)sc1C(=O)N1CC(N2CCN(C(=O)c3nccs3)CC2)C1` : 10.4

Kd in this record for `O=C(c1ccc(-c2ccc(C(F)(F)F)s2)cc1)N1CC(N2CCN(C(=O)c3nccs3)CC2)C1` : 3

Kd in this record for `Cc1oc(-c2ccccc2)cc1C(=O)N1CC(N2CCN(C(=O)c3ccccc3)CC2)C1` : 1000

Kd in this record for `O=C(c1ccccc1)N1CCN(C2CN(C(=O)c3ccc(-c4cc(Cl)cc(Cl)c4)cc3)C2)CC1` : 26.6

Kd in this record for `O=C(c1nccs1)N1CCN(C2CN(C(=O)c3ccc(-c4ccccc4)cc3F)C2)CC1` : 2

Kd in this record for `COc1ccc2c(C)c(C(=O)N3CC(N4CCN(C(=O)c5nccs5)CC4)C3)oc2c1` : 1140

Kd in this record for `O=C(c1ccc(SCc2ccc(Cl)cc2)cc1)N1CC(N2CCN(C(=O)c3nccs3)CC2)C1` : 8

Kd in this record for `O=C(c1ccc(Oc2ccc(Cl)cn2)cc1)N1CC(N2CCN(C(=O)c3cscn3)CC2)C1` : 781

----------
Target: mutant MGL (Homo sapiens, UniProt Q99685, L169S/L176S)
Assay: MGL ThermoFluor assay - mutant
Assay type: binding
Conditions: compound concentration measured by qNMR, read-out: MGL mutant ThermoFluor qKd (using qNMR conc.)
pKd: −log10 of the molar value.
satisfied means recorded pKd is 8 or above; not satisfied means it is below 8.

Quick check, pKd >= 8? `O=C(c1ccc2c(c1)ncn2CC(F)(F)F)N1CC(N2CCN(C(=O)c3nccs3)CC2)C1`
not satisfied

Quick check, pKd >= 8? `O=C(c1ccc2c(c1)CCN2c1ccc(F)cc1)N1CC(N2CCN(C(=O)c3cscn3)CC2)C1`
not satisfied

Quick check, pKd >= 8? `Cc1cc(C(=O)N2CC(N3CCN(C(=O)c4cscn4)CC3)C2)cc2ccn(-c3ccc(F)cc3)c12`
not satisfied

Quick check, pKd >= 8? `Cn1cc(-c2cccc(F)c2)c2ccc(C(=O)N3CC(N4CCN(C(=O)c5nccs5)CC4)C3)cc21`
satisfied
